Provenance of the data: the Human Domainome abundance scans (Beltran et al. 2025)

Exercise: state measured abundance fitness for each of the variants provided.
B1: POU domain, class 3, transcription factor 1, residues 247 to 324; numbered along this chain, Q03052 (parent)
chain: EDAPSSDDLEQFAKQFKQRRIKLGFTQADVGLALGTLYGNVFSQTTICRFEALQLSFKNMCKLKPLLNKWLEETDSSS

- Variants of: B1
- test-protocol: abundance fitness (aPCA) (normalised: wild type 0, dead -1); higher = more abundant; growth selection in yeast, the domain comes from the species named
- experimental-context: Homo sapiens

Y38R ... -0.383

Give me abundance fitness for each of these variants, listed below.
1. N59H
2. Q44G
3. L67P
4. L53S

Completion:
1: 0.096; 2: 0.03; 3: -0.613; 4: 0.051
